Target: MOR
Assay: Radioligand binding assay at μ opioid receptor
Details: ratio of binding affinities MOR/DOR
Non-standard residues stand in square brackets, D forms with d. Residues, ends and D or L forms follow the SMILES beside them. *: point of attachment. NH(3,5-(CF3)2-benzyl) = FC(F)(F)c1cc(CN*)cc(C(F)(F)F)c1; NMePhe(4-F) = CN[C@@H](Cc1ccc(F)cc1)C(=O)O; Phe(4-F) = N[C@@H](Cc1ccc(F)cc1)C(=O)O; Dmt = Cc1cc(O)cc(C)c1C[C@H](N)C(=O)O
observable: Ki^μ/Ki^δ

Recorded results for 2 compounds are shown here.
- CC(C)C[C@H](NC(=O)[C@@H]1CCCN1C(=O)CNC(=O)[C@H](Cc1ccc(F)cc1)NC(=O)CNC(=O)[C@@H](C)NC(=O)[C@@H](N)Cc1ccc(O)cc1)C(=O)N[C@@H](Cc1c[nH]c2ccccc12)C(=O)NCc1cc(C(F)(F)F)cc(C(F)(F)F)c1 [AKG130] (H-Y[dA]G[Phe(4-F)]GPLW-{NH(3,5-(CF3)2-benzyl)}): 2/1
- Cc1cc(O)cc(C)c1C[C@H](N)C(=O)N[C@H](C)C(=O)NCC(=O)N[C@@H](Cc1ccc(F)cc1)C(=O)N1CCC[C@H]1C(=O)N[C@@H](CC(C)C)C(=O)N[C@@H](Cc1c[nH]c2ccccc12)C(=O)NCc1cc(C(F)(F)F)cc(C(F)(F)F)c1: 1/1

From here, focus on the item given below.
Read the entry Cc1cc(O)cc(C)c1C[C@H](N)C(=O)N[C@H](C)C(=O)NCC(=O)N(C)[C@@H](Cc1ccc(F)cc1)C(=O)N[C@@H](CO)C(=O)N1CCC[C@H]1C(=O)N[C@@H](CC(C)C)C(=O)N[C@@H](Cc1c[nH]c2ccccc12)C(=O)NCc1cc(C(F)(F)F)cc(C(F)(F)F)c1 [AKG135] (H-[Dmt][dA]G[NMePhe(4-F)]SPLW-{NH(3,5-(CF3)2-benzyl)}; N-terminus assumed) and write its reported Ki^μ/Ki^δ.
1/1
